Field: protein stability index. Provide a value for each of the variants that follow.
B1: ZNF263 (parent)
chain: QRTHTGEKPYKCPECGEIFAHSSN

Variants of: B1
Experiment: protein stability index of a GFP-peptide fusion (GPS, HEK-293T) (PSI 1-6); higher = more stable;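 note: lentivirally expressed fusions sorted by FACS into six bins by GFP to DsRed ratio, PSI derived from sequencing read proportions per bin multiplied by bin number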
Condition: c terminus: a fixed tail appended
Answers are plain numbers.

QREHTGEKPYKCPECGEIFAHSSN    3.51
QRTHTGEKGYKCPECGEIFAHSSN    3.58

Please report protein stability index for every entry that follows.
1. QRTHTGEKPYKCPECGEIFAHSSM
2. QRFHTGEKPYKCPECGEIFAHSSN
3. QRTHTGEKPIKCPECGEIFAHSSN

Resp:
1. 2.75
2. 2.67
3. 3.59

# batch: return protein stability index for each of the 2 variants below
1. QRTHTGEKPYKCPECGEIFGHSSN
2. QRHHTGEKPYKCPECGEIFAHSSN

Resp:
3.16
3.51

Quick batch: protein stability index for everything below.
1. QRTHTGEKPYKCPEYGEIFAHSSN
2. QRTHTGEKPYKCPECGEIFHHSSN
3. QRTHTKEKPYKCPECGEIFAHSSN
4. QRTHTGEKPYKCPECGEIFAHSST
5. QRTHTGEKPYKCPEMGEIFAHSSN
6. QRTHTGEKPYKCPECYEIFAHSSN
7. QRTHTGEKPYKCPECGEMFAHSSN
8. QRTHTGPKPYKCPECGEIFAHSSN

Resp:
[3.68, 3.45, 3.18, 3.54, 4.88, 3.18, 3.73, 3.42]
